Attribute: isoTOP-ABPP ratio (R) at liganded lysine P24941_K33
- Assayed system: CDK2 Cyclin-dependent kinase 2 (Homo sapiens, UniProt P24941)
- Construct: isoTOP-ABPP experiments performed in cell lysates (in vitro); endogenous in cells; host or cells: soluble proteome of human cancer cell lines (MDA-MB-231; Ramos and Jurkat also prepared)
- Test method notes: competitive isoTOP-ABPP
- Type: binding
- Applied conditions: 50 uM, in vitro, sol, 231
Number only, please.

- Molecule: "O=C(Oc1ccc([N+](=O)[O-])cc1[N+](=O)[O-])c1ccccc1Nc1cccc(C(F)(F)F)c1 [fragment 40]"
  Endpoint value: 1.0
- Molecule: "O=C(Oc1ccc([N+](=O)[O-])cc1[N+](=O)[O-])C1CCN(C(=O)OCc2ccccc2)CC1 [fragment 34]"
  Endpoint value: 1.0
- Molecule: "CC(C)(C)OC(=O)NCCCC(=O)Oc1ccc([N+](=O)[O-])cc1[N+](=O)[O-] [fragment 41]"
  Endpoint value: 1.0
- Molecule: "O=C(Oc1ccc([N+](=O)[O-])cc1[N+](=O)[O-])c1ccc(Oc2ccccc2)cc1 [fragment 39, 2,4-Dinitrophenyl 4-phenoxybenzoate]"
  Endpoint value: 1.0
- Molecule: "O=C(Oc1ccc([N+](=O)[O-])cc1[N+](=O)[O-])c1ccc(-c2ccccc2)cc1 [fragment 37]"
  Endpoint value: 0.9
- Molecule: "O=C(CC12CC3CC(CC(C3)C1)C2)Oc1ccc([N+](=O)[O-])cc1[N+](=O)[O-] [fragment 38]"
  Endpoint value: 0.9
- Molecule: "O=C(Oc1ccc([N+](=O)[O-])cc1[N+](=O)[O-])C(c1ccccc1)(c1ccccc1)c1ccccc1 [fragment 42, 2,4-Dinitrophenyl 2,2,2-triphenylacetate]"
  Endpoint value: 0.9

Here is the next item to consider.
Data request: Specify reported isoTOP-ABPP ratio (R) at liganded lysine P24941_K33 for the molecule shown: O=C(Oc1ccc([N+](=O)[O-])cc1[N+](=O)[O-])c1ccc2ccccc2n1 [fragment 35]
Data returned: 1.6

* * *

Attribute: isoTOP-ABPP ratio (R) at liganded lysine P20839_K208
- Assayed system: IMPDH1 Inosine-5-monophosphate dehydrogenase 1 (Homo sapiens)
- Construct: isoTOP-ABPP experiments performed in cell lysates (in vitro); endogenous in cells; host or cells: soluble proteome of human cancer cell lines (MDA-MB-231; Ramos and Jurkat also prepared)
- Sequence (P20839 whole entry): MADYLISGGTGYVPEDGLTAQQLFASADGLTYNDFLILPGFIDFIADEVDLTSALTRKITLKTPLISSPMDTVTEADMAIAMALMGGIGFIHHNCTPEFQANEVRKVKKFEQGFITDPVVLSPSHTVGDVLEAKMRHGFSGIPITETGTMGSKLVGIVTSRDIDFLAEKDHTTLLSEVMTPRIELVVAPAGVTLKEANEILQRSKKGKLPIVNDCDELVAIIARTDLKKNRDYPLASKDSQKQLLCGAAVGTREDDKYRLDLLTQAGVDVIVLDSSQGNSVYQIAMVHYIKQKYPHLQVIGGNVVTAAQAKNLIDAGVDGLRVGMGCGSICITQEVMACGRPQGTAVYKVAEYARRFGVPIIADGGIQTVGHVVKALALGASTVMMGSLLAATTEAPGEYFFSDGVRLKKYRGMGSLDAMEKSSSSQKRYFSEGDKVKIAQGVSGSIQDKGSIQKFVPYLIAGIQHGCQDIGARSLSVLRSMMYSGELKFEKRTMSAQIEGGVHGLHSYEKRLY
- Test method notes: competitive isoTOP-ABPP
- Type: binding
- Applied conditions: 50 uM, in vitro, sol, 231

// known answers, use as guide
- Compound: "O=C(CC12CC3CC(CC(C3)C1)C2)Oc1ccc([N+](=O)[O-])cc1[N+](=O)[O-]"
  Endpoint value: 1.2
- Compound: "O=C(Oc1ccc([N+](=O)[O-])cc1[N+](=O)[O-])C(c1ccccc1)(c1ccccc1)c1ccccc1 [fragment 42, 2,4-Dinitrophenyl 2,2,2-triphenylacetate]"
  Endpoint value: 1.2
- Compound: "CC(C)(C)OC(=O)NCCCC(=O)Oc1ccc([N+](=O)[O-])cc1[N+](=O)[O-]"
  Endpoint value: 1.2

Data request: Specify reported isoTOP-ABPP ratio (R) at liganded lysine P20839_K208 for the compound shown: "O=C(CCc1coc2cc(F)ccc2c1=O)Oc1ccc([N+](=O)[O-])cc1[N+](=O)[O-]"
Data returned: 1.6

Data request: Specify reported isoTOP-ABPP ratio (R) at liganded lysine P20839_K208 for the compound shown: "O=C(Oc1ccc([N+](=O)[O-])cc1[N+](=O)[O-])c1ccc(-c2ccccc2)cc1"
Data returned: 1.4

Data request: Specify reported isoTOP-ABPP ratio (R) at liganded lysine P20839_K208 for the compound shown: CC(=O)Oc1ccc([N+](=O)[O-])cc1[N+](=O)[O-] [fragment 43, 2,4-Dinitrophenyl acetate]
Data returned: 1.3

* * *

- Assayed system: DCTN2 Dynactin subunit 2 (Homo sapiens)
- Construct: isoTOP-ABPP experiments performed in cell lysates (in vitro); endogenous in cells; host or cells: soluble proteome of human cancer cell lines (MDA-MB-231, Ramos, Jurkat)
- Sequence (Q13561 whole entry): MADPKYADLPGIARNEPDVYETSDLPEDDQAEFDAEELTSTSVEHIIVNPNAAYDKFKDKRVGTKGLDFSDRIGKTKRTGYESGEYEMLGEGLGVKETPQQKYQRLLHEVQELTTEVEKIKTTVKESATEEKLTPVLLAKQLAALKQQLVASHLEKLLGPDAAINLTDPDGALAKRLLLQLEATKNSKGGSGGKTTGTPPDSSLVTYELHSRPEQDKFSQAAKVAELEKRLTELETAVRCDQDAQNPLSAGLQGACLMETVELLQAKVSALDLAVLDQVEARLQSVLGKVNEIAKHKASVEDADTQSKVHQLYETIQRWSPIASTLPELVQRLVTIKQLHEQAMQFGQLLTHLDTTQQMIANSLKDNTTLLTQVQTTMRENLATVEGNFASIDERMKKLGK
- Test method notes: competitive isoTOP-ABPP
- Assay type: binding
- Applied conditions: 50 uM, in vitro, sol, 231
Measurement kind: isoTOP-ABPP ratio (R) at liganded lysine Q13561_K175
Number only, please.

- Compound: "O=C(Oc1ccc([N+](=O)[O-])cc1[N+](=O)[O-])c1ccc(-c2ccccc2)cc1"
  Endpoint value: 0.9
- Compound: "CC(=O)Oc1ccc([N+](=O)[O-])cc1[N+](=O)[O-] [fragment 43, 2,4-Dinitrophenyl acetate]"
  Endpoint value: 0.6
- Compound: "O=C(Oc1ccc([N+](=O)[O-])cc1[N+](=O)[O-])C(c1ccccc1)(c1ccccc1)c1ccccc1 [fragment 42, 2,4-Dinitrophenyl 2,2,2-triphenylacetate]"
  Endpoint value: 0.9
- Compound: "O=C(Oc1ccc([N+](=O)[O-])cc1[N+](=O)[O-])C1CCN(C(=O)OCc2ccccc2)CC1"
  Endpoint value: 1.7
- Compound: "O=C(Oc1ccc([N+](=O)[O-])cc1[N+](=O)[O-])c1ccccc1Nc1cccc(C(F)(F)F)c1"
  Endpoint value: 0.9

Data request: Specify reported isoTOP-ABPP ratio (R) at liganded lysine Q13561_K175 for the compound shown: "CC(C)(C)OC(=O)NCCCC(=O)Oc1ccc([N+](=O)[O-])cc1[N+](=O)[O-]"
Data returned: 1.3

Data request: Specify reported isoTOP-ABPP ratio (R) at liganded lysine Q13561_K175 for the compound shown: O=C(Oc1ccc([N+](=O)[O-])cc1[N+](=O)[O-])c1ccc(Oc2ccccc2)cc1 [fragment 39, 2,4-Dinitrophenyl 4-phenoxybenzoate]
Data returned: 0.8

Data request: Specify reported isoTOP-ABPP ratio (R) at liganded lysine Q13561_K175 for the compound shown: "O=C(Oc1ccc([N+](=O)[O-])cc1[N+](=O)[O-])c1ccc2ccccc2n1"
Data returned: 0.8

* * *

- Assayed system: WARS Tryptophan--tRNA ligase, cytoplasmic (Homo sapiens, UniProt P23381)
- Construct: isoTOP-ABPP experiments performed in cell lysates (in vitro); endogenous in cells; host or cells: soluble proteome of human cancer cell lines (MDA-MB-231; Ramos and Jurkat also prepared)
- Sequence (P23381 1-471): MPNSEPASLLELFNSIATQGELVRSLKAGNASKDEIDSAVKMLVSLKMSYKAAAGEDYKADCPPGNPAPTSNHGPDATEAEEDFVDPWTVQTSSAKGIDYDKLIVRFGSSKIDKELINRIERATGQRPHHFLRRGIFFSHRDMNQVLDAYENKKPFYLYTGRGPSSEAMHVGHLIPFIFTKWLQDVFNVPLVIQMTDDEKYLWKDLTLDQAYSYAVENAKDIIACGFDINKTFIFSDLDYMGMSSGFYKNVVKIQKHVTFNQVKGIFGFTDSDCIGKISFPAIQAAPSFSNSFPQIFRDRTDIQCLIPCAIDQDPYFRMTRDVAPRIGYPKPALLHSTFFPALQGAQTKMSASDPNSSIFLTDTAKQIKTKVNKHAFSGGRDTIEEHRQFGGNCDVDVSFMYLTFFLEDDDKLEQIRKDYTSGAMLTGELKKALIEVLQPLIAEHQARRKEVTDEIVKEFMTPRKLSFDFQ
- Test method notes: competitive isoTOP-ABPP
- Type: binding
- Applied conditions: 50 uM, in vitro, sol, 231
Measurement kind: isoTOP-ABPP ratio (R) at liganded lysine P23381_K256
Number only, please.

// known answers, use as guide
- Molecule: "O=C(Oc1ccc([N+](=O)[O-])cc1[N+](=O)[O-])C(c1ccccc1)(c1ccccc1)c1ccccc1 [fragment 42, 2,4-Dinitrophenyl 2,2,2-triphenylacetate]"
  Assayed system: "WARS Tryptophan--tRNA ligase, cytoplasmic (Homo sapiens, UniProt P23381)"
  Endpoint value: 1.1
- Molecule: "O=C(CC12CC3CC(CC(C3)C1)C2)Oc1ccc([N+](=O)[O-])cc1[N+](=O)[O-] [fragment 38]"
  Assayed system: "WARS Tryptophan--tRNA ligase, cytoplasmic (Homo sapiens, UniProt P23381)"
  Endpoint value: 1.4

Data request: Specify reported isoTOP-ABPP ratio (R) at liganded lysine P23381_K256 for the molecule shown: O=C(Oc1ccc([N+](=O)[O-])cc1[N+](=O)[O-])C1CCN(C(=O)OCc2ccccc2)CC1 [fragment 34]
Data returned: 1.0

* * *

- Assayed system: TPD52L2 Tumor protein D54 (Homo sapiens, UniProt O43399)
- Construct: isoTOP-ABPP experiments performed in cell lysates (in vitro); endogenous in cells; host or cells: MDA-MB-231 soluble lysate
- Sequence (O43399 whole entry): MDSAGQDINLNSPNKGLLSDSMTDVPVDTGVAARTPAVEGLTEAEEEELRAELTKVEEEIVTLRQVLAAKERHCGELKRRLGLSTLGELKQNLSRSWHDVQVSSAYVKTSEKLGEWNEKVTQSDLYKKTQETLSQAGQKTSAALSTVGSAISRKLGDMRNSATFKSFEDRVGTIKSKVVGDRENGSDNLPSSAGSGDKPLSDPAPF
- Test method notes: competitive isoTOP-ABPP
- Type: binding
- Parameters: key: R = MS1 peak area ratio, DMSO (heavy) / compound-treated (light)
- Applied conditions: 50 uM, 231 sol, in vitro
Attribute: isoTOP-ABPP reactivity ratio at lysine O43399_K90
Number only, please.

// known answers, use as guide
- Compound: "O=C(Oc1c(F)c(F)c(F)c(F)c1F)c1ccc2ccccc2n1 [fragment 25]"
  Endpoint value: 1.5
- Compound: "O=C(Oc1ccc([N+](=O)[O-])cc1[N+](=O)[O-])C(c1ccccc1)c1ccccc1 [fragment 30, 2,4-Dinitrophenyl 2,2-diphenylacetate]"
  Endpoint value: 5.5
- Compound: "O=C(CCc1coc2cc(F)ccc2c1=O)Oc1c(F)c(F)c(F)c(F)c1F [fragment 26]"
  Endpoint value: 1.3
- Compound: "O=C(Oc1ccc([N+](=O)[O-])cc1[N+](=O)[O-])c1cc(C(F)(F)F)cc(C(F)(F)F)c1 [fragment 31]"
  Endpoint value: 3.3
- Compound: "CCn1cc(C(=O)Oc2c(F)c(F)c(F)c(F)c2F)c(=O)c2ccc(C)nc21 [fragment 28]"
  Endpoint value: 1.1
- Compound: "O=C(CN1C(=O)c2ccccc2C1=O)Oc1c(F)c(F)c(F)c(F)c1F [fragment 27]"
  Endpoint value: 1.4
- Compound: "O=C(Oc1c(F)c(F)c(F)c(F)c1F)C1CCN(C(=O)OCc2ccccc2)CC1 [fragment 24]"
  Endpoint value: 1.9
- Compound: "COc1cc(CCC(=O)Oc2ccc([N+](=O)[O-])cc2[N+](=O)[O-])cc(OC)c1OC [fragment 33]"
  Endpoint value: 1.3
- Compound: "O=C(CCc1cn(-c2ccccc2)nc1-c1ccccc1)Oc1ccc([N+](=O)[O-])cc1[N+](=O)[O-] [fragment 29]"
  Endpoint value: 3.1

Data request: Specify reported isoTOP-ABPP reactivity ratio at lysine O43399_K90 for the compound shown: Cn1cc(CC(=O)Oc2ccc([N+](=O)[O-])cc2[N+](=O)[O-])c2ccccc21 [fragment 32]
Data returned: 2.7
